# Tested on: Bcl-2 (Homo sapiens (Human))
# Sequence (P10415 whole entry): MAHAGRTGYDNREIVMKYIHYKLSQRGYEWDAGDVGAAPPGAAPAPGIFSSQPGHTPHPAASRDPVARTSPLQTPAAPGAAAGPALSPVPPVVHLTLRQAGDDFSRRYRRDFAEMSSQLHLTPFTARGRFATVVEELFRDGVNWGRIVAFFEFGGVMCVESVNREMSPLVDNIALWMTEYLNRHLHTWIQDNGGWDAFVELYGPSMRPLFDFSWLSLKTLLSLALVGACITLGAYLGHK
# Measurement notes: Bcl-2 competition binding (fluorescence polarization) assay
# Run parameters: fluorescein labeled BH3 peptide 15 nM, Bcl-2 protein 30 nM, 3 hours of incubation at room temperature
Where a name gives a salt, the structure may show the parent alone.
Listed compounds paired with reported pIC50
// scale note: pIC50 = -log10(conc_M); give the bare number

Provide Bcl-2 (Homo sapiens (Human)) pIC50 reading for CC(C)Oc1ccccc1[C@@H]1CCCN1C1CC2(CCN(c3ccc(C(=O)NS(=O)(=O)c4ccc(NCC5CCC(C)(O)CC5)c([N+](=O)[O-])c4)c(N4c5cc6cc[nH]c6nc5O[C@@H]5COC[C@H]54)c3)CC2)C1 (some centres unmarked) [Example 45] .
9.70

Consider the additional compound presented here.
Provide Bcl-2 (Homo sapiens (Human)) pIC50 reading for O=C(NS(=O)(=O)c1ccc(NCC2CCOCC2)c([N+](=O)[O-])c1)c1ccc(N2CCC3(CC2)CC(N2CCC[C@H]2c2ccccc2F)C3)cc1N1c2cc3cc[nH]c3nc2O[C@@H]2COC[C@H]21 [Example 24, hydrochloride] .
9.38

This collection of values is drawn from patent US20240166646A1.
